I'd appreciate it if you could supply Ki values for the items below.
Biological target: PKC alpha kinase (Homo sapiens, UniProt P17252)
Assay: PKC alpha kinase inhibition, coupled-enzyme NADH absorbance assay (Ki)
Format: biochemical
Conditions: 130 μM ATP, 4.5 nM PKC alpha, 30° C.; read-out: Ki PKC alpha

Data request: Requested field: Ki. Item: CCC(C)(C#N)c1cc(CCC(F)F)cc(-c2ccnc3[nH]ncc23)c1 (stereo not shown)
Data returned: > 1200 nM

Data request: Find the recorded Ki belonging to OCC1(c2cccc(-c3ccnc4[nH]ncc34)c2)CCNC1 (stereo not shown) and report it.
Data returned: < 2800 nM

Data request: What value of Ki has been recorded for this entry: CCc1cc(-c2ccnc3[nH]nc(C(F)(F)F)c23)cc(C(C)(CC)CN)c1 (stereo not shown)
Data returned: < 500 nM

Data request: Consider the molecule shown here: CCC(C)(CN)c1cc(CCCO)cc(-c2ccnc3[nH]nc(Cl)c23)c1 (stereo not shown) What is its recorded Ki?
Data returned: < 500 nM

Data request: Find the recorded Ki belonging to CCCc1cc(-c2ccnc3[nH]ncc23)cc(C(C)(C)CC#N)c1 and report it.
Data returned: < 2800 nM

Data request: Fill blank: measured Ki of the molecule CC(CN)(CC(F)F)c1cccc(-c2ccnc3[nH]ncc23)c1 (stereo not shown) is ____.
Data returned: < 500 nM

Data request: For the molecule CCC(C)(CN)c1cc(CCCOC)cc(-c2ccnc3[nH]ncc23)c1 (stereo not shown) , what Ki is on record?
Data returned: < 500 nM

Data request: If you can, please state the reported Ki value of CCC(C)(CNC)c1cccc(-c2ccnc3[nH]ncc23)c1 (stereo not shown) .
Data returned: < 500 nM

Data request: I would be grateful if you could share the reported Ki for N#CC1(c2cccc(-c3ccnc4[nH]ncc34)c2)CC1 .
Data returned: < 2800 nM

Data request: Requested field: Ki. Item: NCc1cccc(-c2ccnc3[nH]nc(C(F)(F)F)c23)c1
Data returned: > 1200 nM

Data request: Sample N#CC1(c2cc(CCO)cc(-c3ccnc4[nH]ncc34)c2)CC1 — what was its Ki?
Data returned: > 1200 nM

Data request: Using the record for CCC(C)(CN(C)C)c1cccc(-c2ccnc3[nH]ncc23)c1 (stereo not shown) , report its Ki.
Data returned: < 2800 nM

Data request: Give the measured Ki of Cc1cc(-c2ccnc3[nH]ncc23)cc(C2(CN)CCCC2)c1 .
Data returned: < 2800 nM

Data request: Quick one: Ki for COCC(C)(CN)c1cccc(-c2ccnc3[nH]ncc23)c1 (stereo not shown) ?
Data returned: < 2800 nM

Data request: Fill blank: measured Ki of the molecule CC(C)CC(C)(C#N)c1cccc(-c2ccnc3[nH]ncc23)c1 (stereo not shown) is ____.
Data returned: < 2800 nM

Data request: What does the record list as Ki for CC(F)c1cc(-c2ccnc3[nH]ncc23)cc(C(C)(C)CN)c1 (stereo not shown) ?
Data returned: < 2800 nM

Data request: Can you share its Ki? I mean this molecule: C1=C(c2cccc(-c3ccnc4[nH]ncc34)c2)CNC1
Data returned: < 2800 nM

Data request: Using the record for Cc1cc(-c2ccnc3[nH]nc(C(F)(F)F)c23)cc(C2(CN)CC2)c1 , report its Ki.
Data returned: < 500 nM

Data request: Dear colleague, I am looking for the recorded Ki of the following molecule: N#CC1(c2cccc(-c3ccnc4[nH]nc(Cl)c34)c2)CC1
Data returned: < 500 nM

Data request: # input molecule: C1=C(c2cccc(-c3ccnc4[nH]ncc34)c2)CCNC1 ; wanted: its Ki
Data returned: < 2800 nM

Data request: Ki for c1cc(-c2ccnc3[nH]ncc23)cc(C2CCNCC2)c1 ?
Data returned: < 2800 nM

Data request: Please report the recorded Ki for COc1ccc(C2(C#N)CCC2)cc1-c1ccnc2[nH]ncc12 .
Data returned: > 1200 nM

Data request: What does the record list as Ki for CCC(C)(CN)c1cc(-c2ccnc3[nH]ncc23)cc(C(C)F)c1 (stereo not shown) ?
Data returned: < 2800 nM

Data request: Form field: reported Ki of Cc1cc(-c2ccnc3[nH]ncc23)cc(C(C)(C)CN)c1
Data returned: < 500 nM

Data request: Look at this molecule and give its reported Ki. CCC(C)(CN)c1cc(CCCO)cc(-c2ccnc3[nH]ncc23)c1 (stereo not shown)
Data returned: < 500 nM

Data request: Return reported Ki; argument: COCCCC(C)(CN)c1cccc(-c2ccnc3[nH]ncc23)c1 (stereo not shown)
Data returned: < 2800 nM

Data request: Param item = NCC1(c2cc(F)cc(-c3ccnc4[nH]nc(C(F)(F)F)c34)c2)CCC1 ; retrieve measured Ki.
Data returned: < 50 nM

Data request: I am curious: what Ki value has been reported for CC(C)(C#N)c1cc(N)cc(-c2ccnc3[nH]ncc23)c1 ?
Data returned: < 2800 nM

Data request: Fill in the blank: the reported Ki of N#CC1(c2cccc(-c3ccnc4[nH]nc(C(F)(F)F)c34)c2)CC1 is ____.
Data returned: < 500 nM

Data request: What does the record list as Ki for CCC(C#N)c1cccc(-c2ccnc3[nH]ncc23)c1 (stereo not shown) ?
Data returned: < 2800 nM

Data request: Which value of Ki has been reported for CC(C)(O)CCc1cc(-c2ccnc3[nH]nc(C(F)(F)F)c23)cc(C2(C#N)CC2)c1 in the records?
Data returned: > 1200 nM

Data request: Any idea what its Ki is? The molecule is CCCC(C)(CN)c1cccc(-c2ccnc3[nH]ncc23)c1 (stereo not shown)
Data returned: < 500 nM

Data request: Given the molecule NCC1(c2cc(-c3ccnc4[nH]ncc34)cc(C(F)(F)F)c2)CCC1 , what is its reported Ki?
Data returned: < 2800 nM

Data request: Which Ki value belongs to N#C[C@]1(c2cccc(-c3ccnc4[nH]ncc34)c2)C[C@H](N)C1 ?
Data returned: < 500 nM

Data request: // lookup Ki for CCc1cc(-c2ccnc3[nH]ncc23)cc(C(C)(C)CN)c1
Data returned: < 2800 nM

Data request: Which value of Ki has been reported for COCCC(C)(CN)c1cccc(-c2ccnc3[nH]ncc23)c1 (stereo not shown) in the records?
Data returned: < 2800 nM

Data request: Recorded Ki of CC(C)(C#N)c1cc(CCCO)cc(-c2ccnc3[nH]ncc23)c1 , please.
Data returned: < 2800 nM
